Each recorded value in this set is attributed to patent US10975068B2.

# targetOfAssay: full-length human RORγt (Homo sapiens (Human))
# runDescription: RORγt (full-length human) reporter assay, Conditions B or C
# Type: cell-based
# conditionDetails: read-out: RORγt (FL) Reporter Assay B or C, IC50
Below, each entry is listed with its recorded IC50.
Give the value, in units of nM, as a plain number.

1. C[C@@H](NC(=O)c1nc(C(=O)N2C3CCC2CC3)c(-c2cnc(NC3(C)CCC3)cc2C(F)F)s1)C(C)(C)O [Example 329]; 38

stdin: State the measured IC50 (full-length human RORγt (Homo sapiens (Human))) of CC(C)(C)Nc1cc(C(F)F)c(-c2sc(C(=O)NC3CCS(=O)(=O)CC3)nc2C(=O)N2C3CCC2CC3)cn1 [Example 433]
stdout: 25

stdin: Look up and report IC50, with full-length human RORγt (Homo sapiens (Human)) as system, for C[C@H]1CCCN1C(=O)c1nc(C(=O)N2CC[C@@H](O)C2)sc1-c1cnc(NC(C)(C)C)cc1C(F)(F)F [Example 349]
stdout: 63

stdin: Please respond with reported IC50 (system full-length human RORγt (Homo sapiens (Human))) for O=C(N[C@@H]1CC[C@H]1O)c1nc(C(=O)N2C3CCC2CC3)c(-c2cnc(N[C@@H](C3CC3)C(F)(F)F)cc2C(F)F)s1 (relative stereo) [Example 443] .
stdout: 16

stdin: Lab note: record IC50 of C[C@H]1CCCN1C(=O)c1nc(C(=O)N[C@H]2C[C@H](O)C2)sc1-c1cnc(N[C@H](C)C(F)(F)F)cc1C(F)F [Example 319] tested on full-length human RORγt (Homo sapiens (Human)).
stdout: 79

stdin: Param request: IC50 | system full-length human RORγt (Homo sapiens (Human)) | item C[C@H]1CC(F)(F)CN1C(=O)c1nc(C(=O)N[C@H](C)C(C)(C)O)sc1-c1cnc(NC(C)(C)C)cc1C(F)F [Example 256]
stdout: 20

stdin: Given C[C@H](Nc1cc(C(F)F)c(-c2sc(C(=O)N[C@H]3CC[C@@H]3O)nc2C(=O)N2CCC[C@@H]2C)cn1)C(F)(F)F (relative stereo) [Example 388] , report its IC50 on full-length human RORγt (Homo sapiens (Human)).
stdout: 85

stdin: # lookup: full-length human RORγt (Homo sapiens (Human)) IC50, key = C[C@H](Nc1cc(C(F)F)c(-c2sc(C(=O)NCC(C)(C)O)nc2C(=O)N2CCC[C@@H]2C)cn1)C(C)(C)C [Example 299]
stdout: 11

stdin: Provide IC50, tested on full-length human RORγt (Homo sapiens (Human)), for CC(C)[C@H](C)Nc1cc(C(F)F)c(-c2sc(C(=O)NCC(C)(C)O)nc2C(=O)N2CCC[C@@H]2C)cn1 [Example 300] .
stdout: 29

stdin: // fetch IC50 for C[C@H]1CC(F)(F)CN1C(=O)c1nc(C(=O)NC2CCS(=O)(=O)CC2)sc1-c1cnc(NC2(C)CCC2)cc1C(F)F [Example 328] ; system: full-length human RORγt (Homo sapiens (Human))
stdout: 51

stdin: # return IC50 for CC[C@H](Nc1cc(C(F)F)c(-c2sc(C(=O)N[C@H](C)CO)nc2C(=O)N2CC(F)(F)C[C@@H]2C)cn1)C(F)(F)F [Example 423] , test system: full-length human RORγt (Homo sapiens (Human))
stdout: 38

stdin: Retrieve IC50 on full-length human RORγt (Homo sapiens (Human)); query C[C@H]1CCCN1C(=O)c1nc(C(=O)N2CC[C@@](C)(O)C2)sc1-c1cnc(NC(C)(C)C)cc1C(F)(F)F (relative stereo) [Example 366]
stdout: 63

----------
# targetOfAssay: full-length human RORγt (Homo sapiens (Human))
# runDescription: RORγt (full-length human) reporter assay, Conditions B or C
# Assay type: cell-based
# conditionDetails: RORγt (FL) Reporter Assay B or C, IC50
# Description: RORγt (Full-Length Human) Reporter Assay: Cells used in this assay were transiently co-transfected with three different plasmids, one expressing the GAL4-DNA binding domain (DBD)-RORγt fusion protein under control of a CMV promoter (NH2-Gal4-DBD:RORC-COOH in pCMV-BD, Stratagene #211342), and two reporter plasmids—the firefly luciferase reporter under control of a GAL4 promoter (pFR-Luc 2×GAL4) and Renilla luciferase reporter under control of CMV promoter (pRL-CMV, Promega # E2261). […]
observable: IC50 (µM)
Return type: number; implicit unit µM.

Solved cases (3 shown):
1) O=C(N[C@H]1COC[C@@H]1O)c1nc(C(=O)N2C3CCC2CC3)c(-c2cnc(N[C@@H](C3CC3)C(F)(F)F)cc2C(F)F)s1; 0.028
2) O=C(N[C@H]1CC[C@H](O)C1)c1nc(C(=O)N2C3CCC2CC3)c(-c2cnc(N[C@@H](C3CC3)C(F)(F)F)cc2C(F)F)s1; 0.036
3) C[C@H](Nc1cc(C(F)F)c(-c2sc(C(=O)N[C@H]3CCC[C@@H]3O)nc2C(=O)N2C3CCC2CC3)cn1)C(F)(F)F; 0.013

Now look at this entry.
stdin: Assign IC50 to the following record: C[C@H](CO)NC(=O)c1nc(C(=O)N2C3CCC2CC3)c(-c2cnc(NC(C)(C)C)cc2C(F)F)s1
stdout: 0.003

----------
# targetOfAssay: full-length human RORγt (Homo sapiens (Human), UniProt P51449)
# Sequence (P51449 other isoform, or with tags, fused parts or gaps): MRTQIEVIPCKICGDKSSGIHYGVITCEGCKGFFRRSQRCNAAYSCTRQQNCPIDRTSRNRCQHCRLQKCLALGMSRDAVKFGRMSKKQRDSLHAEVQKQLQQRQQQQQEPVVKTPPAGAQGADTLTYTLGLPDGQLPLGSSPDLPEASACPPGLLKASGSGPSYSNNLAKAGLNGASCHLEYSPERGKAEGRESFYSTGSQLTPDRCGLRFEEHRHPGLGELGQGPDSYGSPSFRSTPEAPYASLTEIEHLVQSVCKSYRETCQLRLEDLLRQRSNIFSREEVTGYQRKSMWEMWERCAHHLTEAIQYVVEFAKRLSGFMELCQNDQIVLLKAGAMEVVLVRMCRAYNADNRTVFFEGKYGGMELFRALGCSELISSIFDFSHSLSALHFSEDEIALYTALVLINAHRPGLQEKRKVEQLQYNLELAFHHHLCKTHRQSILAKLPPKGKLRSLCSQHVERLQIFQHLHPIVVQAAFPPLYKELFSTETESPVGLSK
# runDescription: RORγt (full-length human) reporter assay, Conditions B or C
# Format: cell-based
# conditionDetails: RORγt (FL) Reporter Assay B or C, IC50 (μM), Conditions B or C
IC50 strictly under 0.03 µM means YES; at 0.03 µM or over means NO.

1) C[C@H](Nc1cc(C(F)F)c(-c2sc(C(=O)N[C@@H]3CCC[C@H]3O)nc2C(=O)N2C3CCC2CC3)cn1)C(F)(F)F; YES
2) CCC(C)(C)Nc1cc(C(F)(F)F)c(-c2sc(C(=O)NCC(C)(C)O)nc2C(=O)N2C3CCC2CC3)cn1; YES
3) CC[C@H](Nc1cc(C(F)(F)F)c(-c2sc(C(=O)N[C@H]3COC[C@@H]3O)nc2C(=O)N2C3CCC2CC3)cn1)C(F)(F)F; NO
4) C[C@H](Nc1cc(C(F)(F)F)c(-c2sc(C(=O)N[C@@H]3COC[C@@H]3O)nc2C(=O)N2C3CCC2CC3)cn1)C(F)(F)F (single isomer, unassigned); NO
5) CC[C@H](Nc1cc(C(F)F)c(-c2sc(C(=O)NCC(C)(C)O)nc2C(=O)N2C3CCC2CC3)cn1)C(F)(F)F; YES

stdin: is_below(IC50, 0.03 µM) for CC[C@H](Nc1cc(C(F)F)c(-c2sc(C(=O)N[C@H](C)CO)nc2C(=O)N2C3CCC2CC3)cn1)C(F)(F)F ?
stdout: YES

stdin: Please state whether IC50 is below 0.03 µM for CC[C@H](Nc1cc(C(F)(F)F)c(-c2sc(C(=O)NCC(C)(C)O)nc2C(=O)N2C3CCC2CC3)cn1)C(F)(F)F
stdout: YES

stdin: Hello, is IC50 of the following molecule strictly smaller than 0.03 µM? CC(C)(O)CNC(=O)c1nc(C(=O)N2C3CCC2CC3)c(-c2cnc(NC3(C)CCC3)cc2C(F)F)s1
stdout: YES

stdin: Please check: IC50 for C[C@H](Nc1cc(C(F)(F)F)c(-c2sc(C(=O)N[C@@H]3COC[C@H]3O)nc2C(=O)N2C3CCC2CC3)cn1)C(F)(F)F , strictly under 0.03 µM or not?
stdout: NO

stdin: Given C[C@H](Nc1cc(C(F)(F)F)c(-c2sc(C(=O)NCC(C)(C)O)nc2C(=O)N2C3CCC2CC3)cn1)C(F)(F)F , is recorded IC50 strictly lower than 0.03 µM?
stdout: NO

stdin: Please state whether IC50 is below 0.03 µM for CC[C@H](Nc1cc(C(F)(F)F)c(-c2sc(C(=O)N[C@@H]3COC[C@H]3O)nc2C(=O)N2C3CCC2CC3)cn1)C(F)(F)F
stdout: YES

----------
// values below are reported pIC50
# targetOfAssay: full-length human RORγt (Homo sapiens (Human))
# runDescription: RORγt (full-length human) reporter assay, Conditions B or C
# Type: cell-based
# conditionDetails: Conditions B or C; read-out: RORγt (FL) Reporter Assay B or C, IC50
Kindly note that pIC50 refers to -log10 of the concentration in mol/L and answer with the value alone.

Examples with their reported pIC50 follow.
1. CC(C)(O)CNC(=O)c1nc(C(=O)N2C3CCC2CC3)c(-c2cnc(NC3CCCC3)cc2C(F)(F)F)s1; 7.64
2. CCC(C)(C)Nc1cc(C(F)F)c(-c2sc(C(=O)NCC(C)(C)O)nc2C(=O)N2CCCC[C@@H]2C)cn1; 8.02
3. C[C@H](Nc1cc(C(F)(F)F)c(-c2sc(C(=O)NCC(C)(C)O)nc2C(=O)N2CCC[C@@H]2C)cn1)C1CCC1 (relative stereo); 7.36

stdin: Note down pIC50 recorded for C[C@H](NC(=O)c1nc(C(=O)N2CC(F)(F)C[C@@H]2C)c(-c2cnc(NC3(C)CCC3)cc2C(F)(F)F)s1)C(C)(C)O
stdout: 7.48

stdin: Name the recorded pIC50 of the item C[C@H]1CC(F)(F)CN1C(=O)c1nc(C(=O)N[C@H]2COC[C@@H]2O)sc1-c1cnc(NC2(C)CCC2)cc1C(F)(F)F in your answer.
stdout: 7.80

stdin: Look up pIC50 of C[C@H]1CCCN1C(=O)c1nc(C(=O)N2CC(C)(O)C2)sc1-c1cnc(NC(C)(C)C)cc1C(F)F and report it.
stdout: 7.00
